Target: T1, formyl peptide receptor 2 (FPR2) (UniProt P25090 1-351, limits assumed)
T1 sequence (looked up): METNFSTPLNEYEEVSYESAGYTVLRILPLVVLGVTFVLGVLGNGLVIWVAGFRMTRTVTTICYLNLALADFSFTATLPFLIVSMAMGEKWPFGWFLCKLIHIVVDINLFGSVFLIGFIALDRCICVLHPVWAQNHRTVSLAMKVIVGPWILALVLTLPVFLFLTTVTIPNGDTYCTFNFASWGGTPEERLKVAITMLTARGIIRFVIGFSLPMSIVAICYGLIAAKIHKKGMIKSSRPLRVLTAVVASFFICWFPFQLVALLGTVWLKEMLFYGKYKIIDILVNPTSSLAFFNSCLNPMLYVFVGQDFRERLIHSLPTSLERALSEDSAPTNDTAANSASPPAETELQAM
Assay: cell-based or functional assay
EC50 for [Ca2+]: recorded values

binder: MRYWYM (HELM PEPTIDE1{[CCCC(=O)[*:2]].M.R.Y.W.Y.[dM].[am]}$$$$V2.0; SMILES CCCC(=O)N[C@@H](CCSC)C(=O)N[C@@H](CCCNC(=N)N)C(=O)N[C@@H](Cc1ccc(O)cc1)C(=O)N[C@@H](Cc1c[nH]c2ccccc12)C(=O)N[C@@H](Cc1ccc(O)cc1)C(=O)N[C@H](CCSC)C(N)=O) [peptide of SEQ ID NO 87]
EC50 for [Ca2+]: < 10 nM

binder: RMRYWPM (HELM PEPTIDE1{[ac].R.M.R.Y.W.P.[dM].[am]}$$$$V2.0; SMILES CSCC[C@H](NC(=O)[C@H](CCCNC(=N)N)NC(C)=O)C(=O)N[C@@H](CCCNC(=N)N)C(=O)N[C@@H](Cc1ccc(O)cc1)C(=O)N[C@@H](Cc1c[nH]c2ccccc12)C(=O)N1CCC[C@H]1C(=O)N[C@H](CCSC)C(N)=O) [peptide of SEQ ID NO 107]
EC50 for [Ca2+]: < 10 nM

binder: IKYKPM (HELM PEPTIDE1{I.K.Y.K.P.[dM].[am]}$$$$V2.0; N-terminus assumed; SMILES CC[C@H](C)[C@H](N)C(=O)N[C@@H](CCCCN)C(=O)N[C@@H](Cc1ccc(O)cc1)C(=O)N[C@@H](CCCCN)C(=O)N1CCC[C@H]1C(=O)N[C@H](CCSC)C(N)=O) [peptide of SEQ ID NO 142]
EC50 for [Ca2+]: < 10 nM
